target: furin, P09958; assay: furin cleavage Z-score vs untreated control; higher = more cleavage, active = 3.5 or more, inactive = 1 or less, 8 variable residues between constant flanks; conditions: 15 min;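 further: purified furin at 1:10 enzyme:substrate in 50 mM HEPES pH 7.5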
Sequence (P09958 whole entry): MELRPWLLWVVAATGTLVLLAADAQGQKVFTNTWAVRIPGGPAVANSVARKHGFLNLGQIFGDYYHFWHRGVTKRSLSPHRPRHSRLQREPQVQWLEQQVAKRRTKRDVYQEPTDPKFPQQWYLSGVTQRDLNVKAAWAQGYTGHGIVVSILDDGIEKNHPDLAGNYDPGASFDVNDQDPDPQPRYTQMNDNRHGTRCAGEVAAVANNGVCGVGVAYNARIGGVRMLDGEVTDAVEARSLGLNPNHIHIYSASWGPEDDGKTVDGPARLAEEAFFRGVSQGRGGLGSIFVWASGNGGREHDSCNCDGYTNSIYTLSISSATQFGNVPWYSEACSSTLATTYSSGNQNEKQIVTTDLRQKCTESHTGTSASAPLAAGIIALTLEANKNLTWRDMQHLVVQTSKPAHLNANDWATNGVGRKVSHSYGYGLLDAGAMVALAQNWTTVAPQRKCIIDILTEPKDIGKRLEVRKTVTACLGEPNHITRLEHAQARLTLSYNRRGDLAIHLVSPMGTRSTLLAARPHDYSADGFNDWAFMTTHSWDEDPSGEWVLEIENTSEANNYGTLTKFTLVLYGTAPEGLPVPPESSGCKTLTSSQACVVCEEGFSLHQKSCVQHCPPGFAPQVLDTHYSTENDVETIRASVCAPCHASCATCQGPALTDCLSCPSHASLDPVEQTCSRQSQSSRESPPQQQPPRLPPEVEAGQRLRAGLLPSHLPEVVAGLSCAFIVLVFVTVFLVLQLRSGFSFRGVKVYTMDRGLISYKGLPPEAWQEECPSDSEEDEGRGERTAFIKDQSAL
Some of the results follow. The true hit rate is not given.
Reported furin cleavage Z-score values follow for various sequences
measure: furin cleavage Z-score

sequence: CATTCCSGSWAGNASASA [HC1880]
value: -1.92

sequence: CARAKRVSWDAGNASASA [FS-1681]
value: 0.099

sequence: CARAKRNAVLAGNASASA [FS-2545]
value: 7.8

sequence: CASTPCSAVLAGNASASA [HC2550]
value: -0.0198
